Recorded values, source paper PMC3270411.

assay.target: ERK8 (Homo sapiens)
Sequence (Q8TD08 whole entry): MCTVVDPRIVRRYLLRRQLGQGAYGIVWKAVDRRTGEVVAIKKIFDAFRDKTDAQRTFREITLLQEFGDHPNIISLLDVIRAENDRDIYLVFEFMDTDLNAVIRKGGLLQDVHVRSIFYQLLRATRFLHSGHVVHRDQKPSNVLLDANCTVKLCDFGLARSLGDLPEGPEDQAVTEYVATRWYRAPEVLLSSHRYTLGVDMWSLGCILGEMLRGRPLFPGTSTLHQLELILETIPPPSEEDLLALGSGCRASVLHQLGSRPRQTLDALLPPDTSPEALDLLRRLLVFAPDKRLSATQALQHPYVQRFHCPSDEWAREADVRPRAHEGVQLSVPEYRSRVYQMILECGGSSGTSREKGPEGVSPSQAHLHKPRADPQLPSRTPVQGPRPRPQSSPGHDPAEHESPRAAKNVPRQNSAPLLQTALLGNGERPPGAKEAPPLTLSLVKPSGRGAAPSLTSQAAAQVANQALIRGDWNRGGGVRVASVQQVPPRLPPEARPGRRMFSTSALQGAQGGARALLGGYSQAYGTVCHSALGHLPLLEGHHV
measured.property: IC50

Query block: If you can, please state the reported IC50 value of CN(C)C/C=C/C(=O)Nc1cccc(C(=O)Nc2ccc(Nc3nccc(-c4cccnc4)n3)cc2)c1 [JNK-IN-7] .
Result block: < 200 nM

----------
System: JNK1,JNK2,JNK3
test.method.notes: KiNativ cellular kinase profiling
Format: cell-based
condition: A375 cells, 1 μM, 3 hours; JNK1,JNK2,JNK3, labeling site Lys2
Reported Percent inhibition of kinase labeling by ATP-biotin values for a set of compounds
# output: bare number, implied unit %

Known Percent inhibition of kinase labeling by ATP-biotin results, listed for orientation:
{"smiles.text": "CCC(=O)Nc1cccc(C(=O)Nc2ccc(Nc3nccc(-c4cccnc4)n3)cc2)c1", "experimental.value": 27.3}
{"smiles.text": "CN(C)C/C=C/C(=O)Nc1cccc(C(=O)Nc2ccc(Nc3nccc(-c4cccnc4)n3)cc2)c1", "experimental.value": 99.7}
{"smiles.text": "CN(C)C/C=C/C(=O)Nc1cccc(C(=O)Nc2ccc(Nc3nccc(-c4c(-c5ccccc5)nn5ccccc45)n3)cc2)c1", "experimental.value": 99.8}
{"smiles.text": "CN(C)C/C=C/C(=O)Nc1cccc(C(=O)Nc2ccc(Nc3nccc(/C(C#N)=C4\\Nc5ccccc5S4)n3)cc2)c1", "experimental.value": 98.6}

API: the following record is the query input.
Query block: If you can, please state the reported Percent inhibition of kinase labeling by ATP-biotin value of `Cc1cc(NC(=O)c2cccc(NC(=O)/C=C/CN(C)C)c2)ccc1Nc1nccc(-c2cccnc2)n1` .
Result block: 98.7
